Below, each entry is listed alongside its reported kon.
# system: T1, human B7-H4 extracellular domain (human, UniProt Q7Z7D3 29-258)
# T1 construct: Soluble ECD used as SPR analyte; also called huB7-H4 ECD; huB7-H4
# T1 sequence: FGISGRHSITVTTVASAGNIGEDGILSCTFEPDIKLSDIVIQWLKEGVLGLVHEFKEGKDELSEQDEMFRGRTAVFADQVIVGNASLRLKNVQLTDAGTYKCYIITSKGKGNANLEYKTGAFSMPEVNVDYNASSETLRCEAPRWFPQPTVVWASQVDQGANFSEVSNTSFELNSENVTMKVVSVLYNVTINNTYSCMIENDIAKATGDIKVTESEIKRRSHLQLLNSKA
# assay procedure: SPR 37 C; IgG1 on anti-hFc chip, ECD analyte;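 also: antibodies captured, then B7-H4 ECD injected at five 3-fold dilutions from 300 nM, 65 s association and 600 s dissociation, fitted to a 1:1 Langmuir model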
value kind: kon (M⁻¹ s⁻¹)

| binder | value kind | value reported |
| --- | --- | --- |
| B7-H4 antibody 1117 (antibody, human IgG1, kappa, V domains shown, IgG1 mAb format) VH: EVQLLESGGGLVQPGGSLRLSCAASGFTFSSYAMSWVRQAPGKGLEWVSAISGGGGSTYYADSVKGRFTISRDNSKNTLYLQMNSLRAEDTAVYYCARDIQWYGESTLFDYWGQGTLVTVSS VL: DIQMTQSPSSLSASVGDRVTITCRASQSTRSWLAWLQQKPGKAPKLLIYKASSLESGVPSRFSGSGSGTDFTLTISSLQPEDFATYYCQQYGSYSRTFGQGTKVEIKR | kon | 620000 |
| B7-H4 antibody 1080 (antibody, human IgG1, kappa, V domains shown, IgG1 mAb format) VH: EVQLVESGGGLVQPGGSLRLSCAVSGGSFSGYYWNWIRQPPGKGLEWIGEINHSGSATYNPSLKSRVTISVDTAKNSLYLQMNSLRAEDTAVYYCARGLYNWNVDHWGQGTLVTVSS VL: DIQMTQSPSSLSASVGDRVTITCRASQGIRNDLGWYQQKPGKAPKRLIYAASSLQSGVPSRFSGSGSGTDFTLTISSLQPEDFATYYCLQHNAYPRTFGGGTKVEIKR | kon | 392000 |
| B7-H4 antibody 1113 (antibody, human IgG1, kappa, V domains shown, IgG1 mAb format) VH: EVQLLESGGGLVQPGGSLRLSCAASGFTFSSYAMSWVRQAPGKGLEWVSAISGGGGSTYYADSVKGRFTISRDNSKNTLYLQMNSLRAEDTAVYYCARDIQWYGESTLFDYWGQGTLVTVSS VL: DIQMTQSPSSLSASVGDRVTITCRASQSTRSWLAWYQQKPGKAPKLLIYKASSLEGGVPSRFSGSGSGTDFTLTISSLQPEDFATYYCQQYGSYSRTFGQGTKVEIKR | kon | 251000 |
| B7-H4 antibody 1116 (antibody, human IgG1, kappa, V domains shown, IgG1 mAb format) VH: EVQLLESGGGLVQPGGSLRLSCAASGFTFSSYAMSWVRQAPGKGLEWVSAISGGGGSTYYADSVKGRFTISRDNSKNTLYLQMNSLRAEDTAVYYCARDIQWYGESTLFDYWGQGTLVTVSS VL: DIQMTQSPSSLSASVGDRVTITCRASQSTRSWLAWHQQKPGKAPKLLIYKASSLESGVPSRFSGSGSGTDFTLTISSLQPEDFATYYCQQYGSYSRTFGQGTKVEIKR | kon | 612000 |
| B7-H4 antibody 0934 (antibody, human IgG1, kappa, V domains shown, IgG1 mAb format) VH: EVQLVESGGGLVQPGGSLRLSCAVSGGSFSGYYWNWVRQAPGKGLEWIGEINHSGSATYNPSLKSRVTISVDTAKNSLYLQMNSLRAEDTAVYYCARGLYNWNVDHWGQGTLVTVSS VL: DIQMTQSPSSLSASVGDRVTITCRASQGIRNDLGWYQQKPGKAPKRLIYAASSLQSGVPSRFSGSGSGTDFTLTISSLQPEDFATYYCLQHSSYPRTFGGGTKVEIKR | kon | 454000 |
